Tested on: A498 renal
assay_procedure: NCI-60 one-dose screen, 48 h (100 = growth as untreated, 0 = no growth, -100 = all killed)
measurement_parameters: 10 µM unless noted
This is part of a sample that, as a whole, favours compounds with a hit. Of some 83,000 tested, about 20% had one in any assay. Calls of active or inactive are those of the source. The calls were made as follows: active = growth percent below 10; inactive = the rest.
readout: growth

# compound, growth
data = [
    ("CCOc1ccc(-n2nc(C(=O)Nc3ccccc3)nc2-c2cc(OC)c(OC)c(OC)c2)cc1", "10.3% (inactive)"),
]

What value of measured growth is listed for `COc1ccc(-c2cc(Nc3ccnc(N4CCOCC4)n3)on2)cc1` ?
-0.776% (active)

Which measured growth value corresponds to CCCCC(=O)OCC1OC(n2cnc3c(=S)nc[nH]c32)C(OC(=O)CCCC)C1OC(=O)CCCC (stereo not given) ?
24.8% (inactive)

May I ask what growth has been recorded for `CCc1nnc(CNc2ccc(Cl)cc2)o1` ?
106% (inactive)

Entry CCOc1cc2ncc(C#N)c(Nc3ccc(OCc4cccc(F)c4)c(Cl)c3)c2cc1NC(=O)CC1CCSS1 (stereo not given) : reported growth = ?
64% (inactive)
